# Tested on: A549 NSCLC
# method notes: NCI tumour cell line growth inhibition, 48 h

compound | TGI
Cn1nc(-c2ccccc2NC(=O)C(F)(F)F)c(=O)n(C)c1=S | > 100 µM
CC[C@@H](CCCC[C@@H]1CC[C@H]2CC(=O)C[C@@H]12)OC | > 100 µM
COc1ccc(NC(=O)CC(=O)n2nc(C)c(N=Nc3ccc(C)c(C)c3)c2C)cc1 | > 100 µM
CC1=C2C(=O)O[C@@H](c3ccoc3)[C@]2(C)CCC1=O | > 100 µM
COc1cc([C@@H]2c3cc4c(cc3[C@H](OC3OC5COC(C(C)C)OC5C(O)C3O)C3COC(=O)[C@@H]32)OCO4)cc(OC)c1O (stereo partly drawn) | 21.8 µM
N=C(/C=C/c1ccc(-c2cn3cc(/C=C/C(=N)N4CCCC4)ccc3n2)cc1)N1CCCC1 | > 100 µM
O=[N+]([O-])c1ccc(N/N=C\c2cc(Cl)ccc2O)nc1 | 16.1 µM
CSCCC(NCc1c(O)ccc2ccc(=O)oc12)C(=O)O (stereo not drawn) | > 100 µM

* * *

Below: a set of entries, each annotated with reported TGI.
# Tested on: BT-549 breast
# method notes: NCI tumour cell line growth inhibition, 48 h
property name: TGI

compound | result
S=C(NNC1=NCCCN1)Nc1ccccc1 | > 100 µM
CNNC1=NS(=O)(=O)c2cc(C)c(Cl)cc2S1 | > 10 µM
Cc1cccc(/C=N/NC(=S)NCc2ccccn2)n1 | > 100 µM
O=S(=O)(c1ccc(NC(=S)N/N=C/c2ccccc2O)cc1)N1CCCCC1 | > 100 µM
ClC(Cl)(Cl)C1CCOC1n1nc2ccccc2n1 (stereo not given) | > 100 µM
O=c1c(Cl)nnc2sc3ccccc3n12 | > 100 µM
COc1ncnc2c1cnn2Cc1cn(COCC(O)CO)nn1 (stereo not given) | > 100 µM
CCOC(=O)N1CCN(Cc2cc(=O)n3cc(C)ccc3n2)CC1 | > 100 µM
C[C@H](CCC1=NCCN1)[C@H]1CC[C@H]2[C@@H]3[C@H](O)C[C@@H]4C[C@H](O)CC[C@]4(C)[C@H]3CC[C@]12C | 24.7 µM
O/N=c1/ccn(O)c2ccccc12 | 3.13 µM
Cc1ccc(S(=O)(=O)N/N=C/C(Br)=C(/Br)C(=O)O)cc1 | 20.7 µM
CSC(SC)=C1C(=O)NN=C1C | > 100 µM
Cc1cc(S(N)(=O)=O)c(SCc2nc(N)nc(N(C)C)n2)cc1Cl | > 10 µM
CN(C)CCN1C(=O)CC[C@@]2(C)C1=CC[C@@H]1[C@@H]2CC[C@@]2(C)[C@H]1CC[C@]2(C)O | > 100 µM
O=C(Nc1n[nH]c2nc(-c3ccco3)c(Br)cc12)C1CC1 | > 25 µM
COc1cc2c(cc1OC)C(=O)C(Br)CC2 (stereo not given) | 5.85 µM
COC(=O)c1cnc(=O)n(C2CC(O)C(CO)O2)c1 (stereo not given) | > 100 µM
O=[N+]([O-])c1cccc(N=C2c3ccccc3CN2c2cccc([N+](=O)[O-])c2)c1 | > 100 µM
COc1cc(-c2cc(C(=O)N3CCN(C(=O)c4ccccc4NCc4ccco4)CC3)nc3cc(-c4ccccc4)nn23)cc(OC)c1OC | > 100 µM
O=C1CC(=O)N(C2CCCCC2)C(=O)N1c1ccccc1S(=O)(=O)Oc1ccccc1 | > 100 µM
CC(Cc1ccc(Cl)cc1Cl)NO (stereo not given) | > 100 µM
COC(=O)C1Cc2c([nH]c3ccccc23)C(c2cccc(O)c2)N1 (stereo not given) | 72 µM
N#C/C(=C1\N=C(c2ccccc2O)Oc2ccccc21)c1ccc([N+](=O)[O-])cc1 | > 100 µM
COc1ccccc1/C=C1\Sc2scc(-c3cccc([N+](=O)[O-])c3)[n+]2C1=O | 12.6 µM
COc1cc(O)c(C(=O)/C=C/c2ccccc2)c(OC)c1 | 16.2 µM
COc1cc(N(CCC#N)CCC#N)ccc1/C(N=Nc1ccc(C)cc1)=N/NC(=O)c1cc(Br)ccc1O | 62.6 µM
Cc1cc2nc(N3C(=O)/C(=C/c4cccc([N+](=O)[O-])c4)N=C3c3ccccc3)sc2cc1C | > 100 µM
COc1ccc(-c2cc(-c3ccc(Nc4nc(Nc5ccc(Cl)cc5)nc(Nc5ccc(Cl)cc5)n4)cc3)nc(N)c2C#N)cc1 | 9.11 µM
C1CCC([PH+](C2CCCCC2)C2CCCCC2[PH+](C2CCCCC2)C2CCCCC2)CC1.[Au].[CH-]1CCCCC1C1CCCC[N-]1 (stereo not given) | 1.36 µM
Nc1cccc2c1C(=O)N(C1CCC(=O)NC1=O)C2=O (stereo not given) | > 100 µM
